ASSAY SYSTEM: human TLR8 (Homo sapiens, UniProt Q9NR97)
Sequence (Q9NR97 27-1041): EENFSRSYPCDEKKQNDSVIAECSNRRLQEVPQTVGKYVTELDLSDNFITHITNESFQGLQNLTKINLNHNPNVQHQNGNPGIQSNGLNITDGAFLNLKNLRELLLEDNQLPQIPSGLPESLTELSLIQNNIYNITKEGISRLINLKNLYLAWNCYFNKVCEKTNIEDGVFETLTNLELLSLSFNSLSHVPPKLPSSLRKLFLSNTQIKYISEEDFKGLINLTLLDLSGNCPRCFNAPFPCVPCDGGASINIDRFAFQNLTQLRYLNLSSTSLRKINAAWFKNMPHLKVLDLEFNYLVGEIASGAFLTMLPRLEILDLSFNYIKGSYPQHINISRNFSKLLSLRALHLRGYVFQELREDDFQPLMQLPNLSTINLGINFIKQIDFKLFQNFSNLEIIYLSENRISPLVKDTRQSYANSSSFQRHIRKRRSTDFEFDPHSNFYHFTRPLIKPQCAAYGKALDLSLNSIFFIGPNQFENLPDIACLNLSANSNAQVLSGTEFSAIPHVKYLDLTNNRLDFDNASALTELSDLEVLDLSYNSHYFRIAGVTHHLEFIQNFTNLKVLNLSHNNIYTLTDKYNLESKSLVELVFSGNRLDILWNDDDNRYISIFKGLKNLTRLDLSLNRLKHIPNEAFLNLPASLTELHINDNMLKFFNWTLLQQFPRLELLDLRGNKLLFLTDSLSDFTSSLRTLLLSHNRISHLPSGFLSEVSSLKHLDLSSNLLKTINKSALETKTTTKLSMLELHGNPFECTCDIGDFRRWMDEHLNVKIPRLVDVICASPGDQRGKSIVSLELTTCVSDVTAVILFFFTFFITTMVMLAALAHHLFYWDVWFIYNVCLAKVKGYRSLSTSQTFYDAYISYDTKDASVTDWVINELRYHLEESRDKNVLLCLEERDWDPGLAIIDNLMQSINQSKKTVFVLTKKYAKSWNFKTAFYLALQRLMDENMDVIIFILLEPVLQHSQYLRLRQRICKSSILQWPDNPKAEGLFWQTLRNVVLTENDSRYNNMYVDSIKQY
TEST DETAILS: TLR8 inhibition reporter assay (HEK-Blue cells, SEAP reporter, R848 stimulation)
TEST CONTEXT: HEK-Blue cells overexpressing human TLR8, SEAP reporter, R848 15.9 μM
RESULT TYPE: pIC50
Interpret pIC50 as the negative base-10 log of the concentration measured in mol/L.

Example results:
Requested read-out: pIC50. Entry: Cc1cc(-c2[nH]nc(C3CCN(C)CC3)c2C(C)C)cn2ncnc12 [Example 206]
9.19

Requested read-out: pIC50. Entry: COc1cc(-c2[nH]nc(-c3cnc(C4CCN(CC5CCOCC5)CC4)cn3)c2C(C)C)cn2ncnc12 [Example 376]
8.55

Requested read-out: pIC50. Entry: Cc1cc(-c2[nH]nc(C(=O)N[C@H]3CC[C@@H](NC(C)C(C)(C)C)CC3)c2C(C)C)cn2ncnc12 (stereo partly shown) [Example 150]
9.41

# input for lookup
Requested read-out: pIC50. Entry: Cc1cc(-c2[nH]nc(C(=O)N3CC(N(C)C)C3)c2C(C)C)cn2ncnc12 [Example 21]
7.41

====

Recorded IC50 for the following molecules
ASSAY SYSTEM: human TLR9 (Homo sapiens, UniProt Q9NR96)
Sequence (Q9NR96 26-1032): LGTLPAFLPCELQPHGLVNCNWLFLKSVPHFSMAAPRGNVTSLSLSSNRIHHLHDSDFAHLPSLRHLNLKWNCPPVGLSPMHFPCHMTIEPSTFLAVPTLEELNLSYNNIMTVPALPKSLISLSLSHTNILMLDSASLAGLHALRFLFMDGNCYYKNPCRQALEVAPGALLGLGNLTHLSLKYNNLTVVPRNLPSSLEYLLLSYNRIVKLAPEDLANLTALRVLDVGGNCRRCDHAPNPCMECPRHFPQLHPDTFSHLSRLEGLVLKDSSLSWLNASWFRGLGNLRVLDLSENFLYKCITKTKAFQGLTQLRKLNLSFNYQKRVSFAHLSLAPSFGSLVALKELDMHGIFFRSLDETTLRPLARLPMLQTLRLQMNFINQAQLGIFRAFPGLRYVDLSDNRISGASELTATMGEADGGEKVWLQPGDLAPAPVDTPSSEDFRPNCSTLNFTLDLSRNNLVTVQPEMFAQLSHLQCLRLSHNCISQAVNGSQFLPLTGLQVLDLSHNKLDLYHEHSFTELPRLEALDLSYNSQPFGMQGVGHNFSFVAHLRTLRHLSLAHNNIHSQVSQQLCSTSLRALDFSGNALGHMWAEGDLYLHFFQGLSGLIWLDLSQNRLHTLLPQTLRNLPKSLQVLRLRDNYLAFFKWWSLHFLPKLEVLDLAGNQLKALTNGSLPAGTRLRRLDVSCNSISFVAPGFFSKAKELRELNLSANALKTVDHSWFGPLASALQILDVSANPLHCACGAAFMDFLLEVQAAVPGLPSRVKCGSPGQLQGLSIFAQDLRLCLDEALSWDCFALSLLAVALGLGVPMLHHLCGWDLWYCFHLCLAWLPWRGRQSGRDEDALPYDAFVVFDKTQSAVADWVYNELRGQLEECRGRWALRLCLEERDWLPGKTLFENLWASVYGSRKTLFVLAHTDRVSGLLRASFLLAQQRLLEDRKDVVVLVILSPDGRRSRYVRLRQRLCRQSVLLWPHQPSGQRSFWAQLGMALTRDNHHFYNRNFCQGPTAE
TEST DETAILS: TLR9 inhibition reporter assay (HEK-Blue cells, SEAP reporter, ODN2006 stimulation)
TEST CONTEXT: HEK-Blue cells overexpressing human TLR9, SEAP reporter, ODN2006 5 nM
Your answer is read as µM, so omit the unit and give the number.

Example results:
Requested read-out: IC50. Entry: Cc1cc(-c2[nH]nc(C(=O)N[C@H]3CC[C@H](N)CC3)c2C(C)C)cn2ncnc12
2.5

Requested read-out: IC50. Entry: CNC1CCC(NC(=O)c2n[nH]c(-c3cc(C)c4ncnn4c3)c2C(C)C)CC1 (stereo not shown) [Example 130]
11.5

Requested read-out: IC50. Entry: Cc1cc(-c2[nH]nc(C(=O)N3CC[C@H](N(C)C)C3)c2C(C)C)cn2ncnc12
4.85

# input for lookup
Requested read-out: IC50. Entry: Cc1cc(-c2[nH]nc(C(=O)N[C@H]3CC[C@H](NCC4CCCC4)CC3)c2C(C)C)cn2ncnc12
6.09

====

ASSAY SYSTEM: human TLR9 (Homo sapiens)
Sequence (Q9NR96 26-1032): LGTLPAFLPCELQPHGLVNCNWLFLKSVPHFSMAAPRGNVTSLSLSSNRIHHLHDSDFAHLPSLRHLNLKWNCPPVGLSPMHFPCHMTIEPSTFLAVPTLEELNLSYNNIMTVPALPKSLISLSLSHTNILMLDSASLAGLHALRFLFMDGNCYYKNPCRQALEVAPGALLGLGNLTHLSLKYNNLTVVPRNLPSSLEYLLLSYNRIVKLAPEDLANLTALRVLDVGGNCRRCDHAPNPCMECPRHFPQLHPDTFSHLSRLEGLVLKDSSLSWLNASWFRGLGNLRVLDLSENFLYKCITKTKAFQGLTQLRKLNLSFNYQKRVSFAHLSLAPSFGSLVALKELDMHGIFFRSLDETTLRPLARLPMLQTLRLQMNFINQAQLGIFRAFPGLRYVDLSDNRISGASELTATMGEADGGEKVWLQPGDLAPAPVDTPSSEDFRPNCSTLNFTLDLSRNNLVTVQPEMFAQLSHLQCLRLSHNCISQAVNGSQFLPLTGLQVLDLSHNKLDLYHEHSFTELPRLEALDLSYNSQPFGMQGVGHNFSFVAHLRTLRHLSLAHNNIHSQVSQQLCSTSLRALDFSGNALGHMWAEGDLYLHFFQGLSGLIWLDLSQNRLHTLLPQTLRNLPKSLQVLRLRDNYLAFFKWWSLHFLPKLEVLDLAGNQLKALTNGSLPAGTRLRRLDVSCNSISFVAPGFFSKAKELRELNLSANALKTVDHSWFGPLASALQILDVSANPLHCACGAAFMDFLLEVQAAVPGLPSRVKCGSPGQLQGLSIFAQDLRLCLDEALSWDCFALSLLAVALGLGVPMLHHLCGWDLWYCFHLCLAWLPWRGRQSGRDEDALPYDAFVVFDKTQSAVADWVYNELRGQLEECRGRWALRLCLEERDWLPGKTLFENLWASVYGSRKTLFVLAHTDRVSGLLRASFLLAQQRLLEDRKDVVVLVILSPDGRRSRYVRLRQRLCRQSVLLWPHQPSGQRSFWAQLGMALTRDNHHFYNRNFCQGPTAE
TEST DETAILS: TLR9 inhibition reporter assay (HEK-Blue cells, SEAP reporter, ODN2006 stimulation)
TEST CONTEXT: HEK-Blue cells overexpressing human TLR9, SEAP reporter, ODN2006 5 nM
Excerpt: TLR7/8/9 Inhibition Reporter Assays HEK-Blue™-cells (Invivogen) overexpressing human TLR7, TLR8 or TLR9 receptors were used for screening inhibitors of these receptors using an inducible SEAP (secreted embryonic alkaline phosphatase) reporter gene under the control of the IFN-β minimal promoter fused to five NF-κB and AP-1-binding sites. […]
Recorded pIC50 for the following molecules
Interpret pIC50 as the negative base-10 log of the concentration measured in mol/L.

Form: Entry = CC(C)c1c(C(=O)NC2CCN(C)CC2)n[nH]c1-c1cn(C)c2ncccc12 | System = human TLR9 (Homo sapiens) | pIC50 = ____
5.07

Form: Entry = Cc1cc(-c2[nH]nc(-c3ccc4c(c3)CCN(C)C4)c2C(C)C)cn2ncnc12 | System = human TLR9 (Homo sapiens) | pIC50 = ____
4.78

Form: Entry = Cc1cc(-c2[nH]nc(C(=O)N[C@H]3CC[C@@H](NC4CCOCC4)CC3)c2C(C)C)cn2ncnc12 | System = human TLR9 (Homo sapiens) | pIC50 = ____
5.53

Form: Entry = Cc1cc(-c2[nH]nc(C3CCC(N(C)CC(=O)N(C)C)CC3)c2C(C)C)cn2ncnc12 (centres unmarked) [Example 298] | System = human TLR9 (Homo sapiens) | pIC50 = ____
5.13

Form: Entry = Cc1cc(-c2[nH]nc(C(=O)N3CCNCC3)c2C(C)C)cn2ncnc12 | System = human TLR9 (Homo sapiens) | pIC50 = ____
4.64

Continuing:
Form: Entry = COc1cc(-c2[nH]nc(C(=O)N(C)C3CCN(C)CC3)c2C(C)C)cn2ncnc12 | System = human TLR9 (Homo sapiens) | pIC50 = ____
5.38

Form: Entry = Cc1cc(-c2[nH]nc(-c3ccncc3)c2C(C)C)cn2ncnc12 | System = human TLR9 (Homo sapiens) | pIC50 = ____
4.85

Form: Entry = COc1cc(-c2[nH]nc(-c3ccc(C4CCNCC4)cc3)c2C(C)C)cn2ncnc12 | System = human TLR9 (Homo sapiens) | pIC50 = ____
4.80

====

ASSAY SYSTEM: human TLR8 (Homo sapiens, UniProt Q9NR97)
Construct: host or cells: HEK-Blue cells
TEST DETAILS: TLR8 inhibition reporter assay (HEK-Blue cells, SEAP reporter, R848 stimulation)
Type: cell-based
TEST CONTEXT: HEK-Blue cells overexpressing human TLR8, SEAP reporter, R848 15.9 μM
Recorded log10 IC50 for the following molecules
Scale type: logarithmic (base 10). Underlying IC50 unit: nM.

Example results:
Requested read-out: log10 IC50. Entry: COc1cc(-c2[nH]nc(C(=O)NC3CCN(C4CCN(C(C)C)CC4)CC3)c2CC(F)(F)F)cn2ncnc12
0.34

Requested read-out: log10 IC50. Entry: Cc1cc(-c2[nH]nc(C(=O)NC3CCN(CCC(F)(F)F)CC3)c2C(C)C)cn2ncnc12 [Example 169]
1.23

Requested read-out: log10 IC50. Entry: CCCN1CCC(NC(=O)c2n[nH]c(-c3cc(OC)c4ncnn4c3)c2CC(F)(F)F)CC1
0.22

Requested read-out: log10 IC50. Entry: Cc1cc(-c2[nH]nc(-c3ccc4cnccc4c3)c2C(C)C)cn2ncnc12
-0.41

Requested read-out: log10 IC50. Entry: CCNc1ccc2nc(-c3n[nH]c(-c4cc(C)c5ncnn5c4)c3C(C)C)sc2c1
-0.07

Continuing:
Requested read-out: log10 IC50. Entry: CNCc1n[nH]c(-c2cc(C)c3ncnn3c2)c1C(C)C
0.53

Requested read-out: log10 IC50. Entry: CCN1CCC(c2ccc(-c3n[nH]c(-c4cc(C)c5ncnn5c4)c3C(C)C)cc2)CC1
-0.37

Requested read-out: log10 IC50. Entry: Cc1cc(-c2[nH]nc(C3CCC(N(C)C(=O)C4CN(C(C)C)C4)CC3)c2C(C)C)cn2ncnc12 (single isomer, unassigned) [Example 304]
1.28
